Numbers sourced from paper PMC6511888.

- Assay Summary: Stability in mouse liver microsomes
- Assay type: in vitro ADME
- Test Context: male, pH 7.4, read-out: LM stability mouse (CLint)
Measured Quantity: microsomal CLint at 1 μM

* N#Cc1cnn(-c2nnc(-c3ccccc3Cl)s2)c1N | 14.3 µL/min/mg
* N#Cc1cnn(-c2nnc(-c3ccc(F)cc3)s2)c1N | 11.6 µL/min/mg
* CCOC(=O)c1cnn(-c2nnc(-c3ccccc3Cl)s2)c1N | 26.7 µL/min/mg
* Cc1cc(C)n(-c2nnc(-c3ccc(F)cc3)s2)n1 [Compound 11c] | 38.5 µL/min/mg

----------
Recorded Papp at 60 min, one value per entry.
- Assay Summary: Caco-2 cell permeability
- Assay type: in vitro ADME
- Parameters: dose or concentration left out as unconfirmed
- Test Context: human, Caco-2, pH 7.4; apical to basolateral (A - B); mean ± standard error of three experiments; read-out: Caco-2 apparent permeability (Papp)
Measured Quantity: Papp at 60 min (nm/s)

- N#Cc1cnn(-c2nnc(-c3ccc(F)cc3)s2)c1N [Compound 9c]: 561
- N#Cc1cnn(-c2nnc(-c3ccccc3Cl)s2)c1N [Compound 9b]: 501
- Cc1cc(C)n(-c2nnc(-c3ccc(F)cc3)s2)n1 [Compound 11c]: 779
- CCOC(=O)c1cnn(-c2nnc(-c3ccccc3Cl)s2)c1N [Compound 9f]: 734

----------
- Assay Summary: LDH release assay (toxicity)
- Assay type: cell-based, mouse
- Test Context: mouse peritoneal macrophages; 24 h; read-out: Macrophages IC50 (toxic effect)
Label t when IC50 at 24 h is strictly below 2000 µM; at or above that, label f.

* CCOC(=O)c1cnn(-c2nnc(-c3ccccc3Cl)s2)c1N [Compound 9f] | f
* N#Cc1cnn(-c2nnc(-c3ccccc3Cl)s2)c1N [Compound 9b] | f
* Cc1cc(C)n(-c2nnc(-c3ccc(F)cc3)s2)n1 [Compound 11c] | f
* CCOc1ccc(Nc2ccc(/C(=C3C=C/C(=[N+](/CC)Cc4cccc(S(=O)(=O)[O-])c4)C=C/3C)c3ccc(N(CC)Cc4cccc(S(=O)(=O)O)c4)cc3C)cc2)cc1 [BBG, Brilliant Blue G, reference compound] | t
* N#Cc1cnn(-c2nnc(-c3ccc(F)cc3)s2)c1N [Compound 9c] | f
* COc1ccc(CC(=O)NC(NC(=NC#N)Nc2cccc3ncccc23)C(C)(C)C)cc1OC (stereo not drawn) [Compound A740003] | t

----------
CC50 at 24 h for assorted molecules
- Assay Summary: LDH release assay (toxicity)
- Assay type: cell-based, mouse
- Test Context: mouse, mouse peritoneal macrophages; peritoneal macrophages; toxicity measured for 24 h
Measured Quantity: CC50 at 24 h (mM)

• CCOC(=O)c1cnn(-c2nnc(-c3ccccc3Cl)s2)c1N = 3.9
• N#Cc1cnn(-c2nnc(-c3ccc(F)cc3)s2)c1N = 6.08
• Cc1cc(C)n(-c2nnc(-c3ccc(F)cc3)s2)n1 [Compound 11c] = 3.24
• N#Cc1cnn(-c2nnc(-c3ccccc3Cl)s2)c1N = 2.27

----------
Parameter: % LDH release. Scope: all listed entries.
- Test system: mouse peritoneal macrophages
- Assay Summary: LDH release assay (toxicity)
- Type: cell-based
- Test Context: 10 μM; relative to maximum LDH release caused by 0.05% Triton X-100; cell type not given; mean ± SD
Measured Quantity: % LDH release

* CCOC(=O)c1cnn(-c2nnc(-c3ccccc3)s2)c1N [Compound 9e] | 36.3 ± 11.0%
* CCOC(=O)c1cnn(-c2nnc(-c3ccc(F)cc3)s2)c1N [Compound 9g] | 22.6 ± 0.3%
* CC1(O)CC(C(F)(F)F)=NN1c1nnc(-c2ccccc2Cl)s1 (centres unmarked) [Compound 13b] | 19.6 ± 0.6%
* Cc1cc(C)n(-c2nnc(-c3ccccc3)s2)n1 [Compound 11a] | 34.1 ± 2%
* CC1(O)CC(C(F)(F)F)=NN1c1nnc(-c2ccc(Cl)cc2)s1 (centres unmarked) [Compound 13d] | 38.5 ± 6.2%
* Cc1cc(C(F)(F)F)nn1-c1nnc(-c2ccc(Cl)cc2)s1 [Compound 14d] | 43 ± 5%
* N#Cc1cnn(-c2nnc(-c3ccc(Cl)cc3)s2)c1N [Compound 9d] | 46.3 ± 5.12%
* Cc1cc(C(F)(F)F)nn1-c1nnc(-c2ccc(F)cc2)s1 [Compound 14c] | 10.6 ± 0.5%
* Cc1cc(C)n(-c2nnc(-c3ccccc3Cl)s2)n1 [Compound 11b] | 45.7 ± 1.7%
* CC1(O)CC(C(F)(F)F)=NN1c1nnc(-c2ccccc2)s1 (centres unmarked) [Compound 13a] | 8 ± 0.6%
* N#Cc1cnn(-c2nnc(-c3ccccc3)s2)c1N [Compound 9a] | 58.1 ± 4.8%
* Cc1cc(C(F)(F)F)nn1-c1nnc(-c2ccccc2Cl)s1 [Compound 14b] | 26.6 ± 1.2%
* CCOC(=O)c1cnn(-c2nnc(-c3ccccc3Cl)s2)c1N [Compound 9f] | 42.5 ± 0.4%
* Cc1cc(C)n(-c2nnc(-c3ccc(Cl)cc3)s2)n1 [Compound 11d] | 36.94 ± 10.6%
* Cc1cc(C(F)(F)F)nn1-c1nnc(-c2ccccc2)s1 [Compound 14a] | 32 ± 1%
* CC1(O)CC(C(F)(F)F)=NN1c1nnc(-c2ccc(F)cc2)s1 (centres unmarked) [Compound 13c] | 45.3 ± 1.4%
* Cc1cc(C)n(-c2nnc(-c3ccc(F)cc3)s2)n1 [Compound 11c] | 24 ± 1.7%
* N#Cc1cnn(-c2nnc(-c3ccccc3Cl)s2)c1N [Compound 9b] | 15.8 ± 1.3%
* N#Cc1cnn(-c2nnc(-c3ccc(F)cc3)s2)c1N [Compound 9c] | 10 ± 0.7%
* CCOC(=O)c1cnn(-c2nnc(-c3ccc(Cl)cc3)s2)c1N [Compound 9h] | 15 ± 1.9%

----------
Entries and their pIC50
- Target Of Assay: human P2X7R (Homo sapiens)
- Sequence (Q99572 1-595): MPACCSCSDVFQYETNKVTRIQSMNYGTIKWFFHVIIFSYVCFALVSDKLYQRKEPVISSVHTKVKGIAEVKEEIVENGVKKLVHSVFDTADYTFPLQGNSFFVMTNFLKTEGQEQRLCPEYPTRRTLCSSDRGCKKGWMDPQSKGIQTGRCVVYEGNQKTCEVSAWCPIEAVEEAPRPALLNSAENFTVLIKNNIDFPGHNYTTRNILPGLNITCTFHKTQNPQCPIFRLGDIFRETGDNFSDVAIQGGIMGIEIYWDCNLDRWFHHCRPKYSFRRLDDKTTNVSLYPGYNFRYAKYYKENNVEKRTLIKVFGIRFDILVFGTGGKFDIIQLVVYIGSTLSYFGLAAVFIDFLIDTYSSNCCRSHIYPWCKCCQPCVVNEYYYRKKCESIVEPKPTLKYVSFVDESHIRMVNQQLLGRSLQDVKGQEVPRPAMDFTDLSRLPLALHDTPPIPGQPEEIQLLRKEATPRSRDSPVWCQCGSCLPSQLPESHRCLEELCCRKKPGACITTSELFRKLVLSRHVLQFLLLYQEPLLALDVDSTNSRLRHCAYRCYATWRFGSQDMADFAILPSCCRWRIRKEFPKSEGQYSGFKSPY
- Assay Summary: Dye uptake assay (ethidium bromide) in HEK-293 cells transfected with hP2X7R
- Test Context: ethidium uptake assay; HEK-293 cells transfected with human P2X7R; mean ± SD
pIC50: −log10 of the molar value.
Measured Quantity: pIC50

• N#Cc1cnn(-c2nnc(-c3ccc(F)cc3)s2)c1N = 7.25
• CCOC(=O)c1cnn(-c2nnc(-c3ccccc3Cl)s2)c1N = 7.96
• COc1ccc(CC(=O)NC(NC(=NC#N)Nc2cccc3ncccc23)C(C)(C)C)cc1OC (stereo not drawn) = 7.01
• Cc1cc(C)n(-c2nnc(-c3ccc(F)cc3)s2)n1 [Compound 11c] = 7.09
• N#Cc1cnn(-c2nnc(-c3ccccc3Cl)s2)c1N = 7.39
• CCOc1ccc(Nc2ccc(/C(=C3C=C/C(=[N+](/CC)Cc4cccc(S(=O)(=O)[O-])c4)C=C/3C)c3ccc(N(CC)Cc4cccc(S(=O)(=O)O)c4)cc3C)cc2)cc1 [BBG, Brilliant Blue G, reference compound] = 6.23

----------
- Assay Summary: Stability in human liver microsomes
- Format: in vitro ADME
- Test Context: pH 7.4, read-out: LM stability human (CLint)
Measured Quantity: microsomal CLint at 1 μM (µL/min/mg)

• CCOC(=O)c1cnn(-c2nnc(-c3ccccc3Cl)s2)c1N [Compound 9f] = 39.5
• N#Cc1cnn(-c2nnc(-c3ccc(F)cc3)s2)c1N [Compound 9c] = 18.6
• Cc1cc(C)n(-c2nnc(-c3ccc(F)cc3)s2)n1 [Compound 11c] = 46.7
• N#Cc1cnn(-c2nnc(-c3ccccc3Cl)s2)c1N [Compound 9b] = 26.4

----------
Documented inhibition at 10 µM across a set of compounds
- Target Of Assay: P2X7R (Mus musculus)
- Construct: plated for 24 h before dye uptake assays, whole-cell patch clamp experiments, and IL-1β release assays; endogenous in cells; host or cells: mouse (Swiss Webster) peritoneal macrophages
- Sequence (Q9Z1M0 whole entry): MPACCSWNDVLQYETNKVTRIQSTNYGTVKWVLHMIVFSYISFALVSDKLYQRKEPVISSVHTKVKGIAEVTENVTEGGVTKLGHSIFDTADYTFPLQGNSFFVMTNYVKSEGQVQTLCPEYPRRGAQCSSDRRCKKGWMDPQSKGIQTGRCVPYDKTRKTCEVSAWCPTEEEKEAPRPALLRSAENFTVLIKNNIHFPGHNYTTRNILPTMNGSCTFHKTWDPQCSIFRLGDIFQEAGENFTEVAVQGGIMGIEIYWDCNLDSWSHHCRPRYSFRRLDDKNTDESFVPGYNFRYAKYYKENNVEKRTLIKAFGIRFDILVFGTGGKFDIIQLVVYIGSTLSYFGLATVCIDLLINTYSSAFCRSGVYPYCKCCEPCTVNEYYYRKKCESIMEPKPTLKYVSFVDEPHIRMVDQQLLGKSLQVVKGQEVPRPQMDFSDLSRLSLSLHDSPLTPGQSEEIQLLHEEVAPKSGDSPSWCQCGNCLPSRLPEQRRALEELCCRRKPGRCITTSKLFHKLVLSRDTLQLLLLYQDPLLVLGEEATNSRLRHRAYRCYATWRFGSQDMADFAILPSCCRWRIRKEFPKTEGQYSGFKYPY
- Assay Summary: Dye uptake assay (propidium iodide) in mouse peritoneal macrophages
- Format: cell-based
- Test Context: 10 μM; percentage relative to the maximum uptake of propidium stimulated by 1 mM ATP only; mean ± SD
Measured Quantity: inhibition at 10 µM (%)

* N#Cc1cnn(-c2nnc(-c3ccc(F)cc3)s2)c1N | 28.2
* CCOC(=O)c1cnn(-c2nnc(-c3ccc(Cl)cc3)s2)c1N | 64
* CCOC(=O)c1cnn(-c2nnc(-c3ccc(F)cc3)s2)c1N | 90.8
* Cc1cc(C(F)(F)F)nn1-c1nnc(-c2ccccc2)s1 [Compound 14a] | 91
* CC1(O)CC(C(F)(F)F)=NN1c1nnc(-c2ccc(F)cc2)s1 (centres unmarked) [Compound 13c] | 92
* CCOC(=O)c1cnn(-c2nnc(-c3ccccc3)s2)c1N | 90.2
* CC1(O)CC(C(F)(F)F)=NN1c1nnc(-c2ccccc2Cl)s1 (centres unmarked) [Compound 13b] | 90.7
* CCOC(=O)c1cnn(-c2nnc(-c3ccccc3Cl)s2)c1N | 15.7
* Cc1cc(C)n(-c2nnc(-c3ccccc3)s2)n1 [Compound 11a] | 92.5
* N#Cc1cnn(-c2nnc(-c3ccccc3Cl)s2)c1N | 30
* Cc1cc(C)n(-c2nnc(-c3ccccc3Cl)s2)n1 [Compound 11b] | 89.7
* Cc1cc(C)n(-c2nnc(-c3ccc(Cl)cc3)s2)n1 [Compound 11d] | 69.8
* N#Cc1cnn(-c2nnc(-c3ccc(Cl)cc3)s2)c1N | 62.2
* Cc1cc(C(F)(F)F)nn1-c1nnc(-c2ccccc2Cl)s1 [Compound 14b] | 92
* N#Cc1cnn(-c2nnc(-c3ccccc3)s2)c1N | 89.2
* Cc1cc(C(F)(F)F)nn1-c1nnc(-c2ccc(F)cc2)s1 [Compound 14c] | 92.5
* CC1(O)CC(C(F)(F)F)=NN1c1nnc(-c2ccc(Cl)cc2)s1 (centres unmarked) [Compound 13d] | 71
* Cc1cc(C(F)(F)F)nn1-c1nnc(-c2ccc(Cl)cc2)s1 [Compound 14d] | 54.7
* CC1(O)CC(C(F)(F)F)=NN1c1nnc(-c2ccccc2)s1 (centres unmarked) [Compound 13a] | 90.5
* Cc1cc(C)n(-c2nnc(-c3ccc(F)cc3)s2)n1 [Compound 11c] | 29.2
